- assayed system: T1, CRH (CT-Biotin) (human and mouse (same sequence), biotin on an added C-terminal K (CRH-K-Biotin))
- T1 construct: also called Peptide 4 (CRH-Biotin)
- T1 peptide: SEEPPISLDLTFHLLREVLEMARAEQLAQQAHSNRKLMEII
- assay comment: ELISA, biotinylated CRH on streptavidin plate
Parameter: EC50. Scope: all listed entries.
readout: EC50 (nM)

PR006148 (antibody, human IgG1, kappa, V domains shown, PTM-removal variant of PR004290) VH: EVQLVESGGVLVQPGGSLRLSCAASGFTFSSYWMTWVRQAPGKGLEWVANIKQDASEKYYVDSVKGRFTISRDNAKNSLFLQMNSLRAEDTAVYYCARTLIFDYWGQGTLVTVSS VL: DIVMTQSPLSLPVTPGEPASISCRSSQSLLHSTGYNPLEWYLQKPGQSPQLLIYLGSNRASGVPDRFSGSGSGTDFTLKISRVEAEDVGIYYCMQTLQTPITFGQGTRLEIKR
0.03
PR006151 (antibody, human IgG1, kappa, V domains shown, PTM-removal variant of PR004290) VH: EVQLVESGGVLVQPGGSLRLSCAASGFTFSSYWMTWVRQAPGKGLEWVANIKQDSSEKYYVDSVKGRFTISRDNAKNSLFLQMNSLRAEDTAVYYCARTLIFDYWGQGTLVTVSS VL: DIVMTQSPLSLPVTPGEPASISCRSSQSLLHSTGYHSLEWYLQKPGQSPQLLIYLGSNRASGVPDRFSGSGSGTDFTLKISRVEAEDVGIYYCMQTLQTPITFGQGTRLEIKR
0.023
PR005657 (antibody, human IgG1, kappa, V domains shown, PTM-removal variant of PR004290) VH: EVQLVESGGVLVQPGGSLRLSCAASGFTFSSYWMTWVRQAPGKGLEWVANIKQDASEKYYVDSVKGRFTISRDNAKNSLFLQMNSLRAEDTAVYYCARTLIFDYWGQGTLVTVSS VL: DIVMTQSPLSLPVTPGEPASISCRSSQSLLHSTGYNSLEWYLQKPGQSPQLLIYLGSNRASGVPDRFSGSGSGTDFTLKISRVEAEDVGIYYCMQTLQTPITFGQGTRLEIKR
0.045
PR006142 (antibody, human IgG1, kappa, V domains shown, PTM-removal variant of PR004290) VH: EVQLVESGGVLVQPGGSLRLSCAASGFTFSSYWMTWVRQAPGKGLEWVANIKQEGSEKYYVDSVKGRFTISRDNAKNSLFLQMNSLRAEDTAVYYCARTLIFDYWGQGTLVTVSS VL: DIVMTQSPLSLPVTPGEPASISCRSSQSLLHSTGYDSLEWYLQKPGQSPQLLIYLGSNRASGVPDRFSGSGSGTDFTLKISRVEAEDVGIYYCMQTLQTPITFGQGTRLEIKR
0.046
